test system: DeltatarO mutant; test: S. aureus survival, RN4220 and DeltatarO strains – OD600, teichoic acid synthesis inhibitors, primary screen (AID 463173); details: S. aureus RN4220 wild type/DeltatarO growth, OD600, 18 h, screened at 18.75 µg/mL (by protocol)
Hit rate of the full screen: of about 52,000 compounds, about 4,300 (8.3%) were called active. Rule as the data show it: active = survival mostly below about 52% (no sharp cut-off); inactive = mostly above about 56%. This is one part of a sample in which actives are shown more often than they occur.
The reply should be one of these categories: active, inactive

Smiles Repr | Tested Target | Group Label
CCOC(=O)c1c(CN(C)C)oc2ccc(O)cc12 | DeltatarO mutant | inactive
COc1ccc(Cn2ccc3nc(C)c(C(=O)Nc4ccc(OC)cc4OC)cc3c2=O)cc1 | DeltatarO mutant | active
COc1ccc(CNC(=O)c2cc3c(=O)n(Cc4ccc(OC)cc4)ccc3nc2C)cc1 | DeltatarO mutant | inactive

# input for lookup
For `COc1ccc(S(=O)(=O)N(CC(=O)NCCc2ccccc2)c2ccc(Cl)cc2)cc1` , what call appears in the results of this test?
inactive

----------
test system: DeltatarO mutant; assay: S. aureus survival, RN4220 and DeltatarO strains – OD600, teichoic acid synthesis inhibitors, primary screen (AID 463173); details: S. aureus RN4220 wild type/DeltatarO growth, OD600, 18 h, hits give low values, screened at 18.75 µg/mL (by protocol)
Hit rate of the full screen: of about 52,000 compounds, about 4,300 (8.3%) were called active. The list comes from a sample in which actives are over-represented; it also holds close analogues and randomly drawn compounds.
Assay Endpoint: survival (%)
State the answer as a number, implicitly in %.

Worked set:
Compound | Tested Target | survival, %
CC1C(C(=O)Nc2ccccc2)CCCC1(C)C(=O)O (configuration not stated) | DeltatarO mutant | 80
COc1ccc(C)cc1NC(=O)Cn1c(=O)n(Cc2nc(C)no2)c(=O)c2ccccc21 | DeltatarO mutant | 79
O=C(NCC(c1cccnc1)N1CCN(Cc2ccccc2)CC1)C(=O)Nc1cccc(Cl)c1 (configuration not stated) | DeltatarO mutant | 77
COc1ccc(CCN2C(=O)N(c3ccc(F)cc3)C(=O)C2CC(=O)Nc2ccc(F)c(F)c2)cc1 (configuration not stated) | DeltatarO mutant | 61
Cc1cc(C)n(-c2n[nH]c(=S)c3ccccc23)n1 | DeltatarO mutant | 81

Could you tell me which survival is on file for `CCc1ccccc1NC(=O)Cn1c(=O)ccc2cc(S(=O)(=O)N3CCC(C)CC3)ccc21` ?
92

Reported survival, compound `Cc1ccc(CNC(=O)Cn2c(=O)ccc3cc(S(=O)(=O)N4CCCC4)ccc32)cc1` : ____
92

Which survival is listed for `Cc1ccc(C(=O)CCCn2nnc(-c3ccncc3)n2)cc1C` ?
100

What survival value was documented for this compound, `O=S1(=O)N=C(Nc2cccc(C(F)(F)F)c2)c2ccccc21` ?
53

----------
system: DeltatarO mutant; assay: S. aureus survival, RN4220 and DeltatarO strains – OD600, teichoic acid synthesis inhibitors, primary screen (AID 463173); conditions: S. aureus RN4220 wild type/DeltatarO growth, OD600, 18 h, hits give low values, screened at 18.75 µg/mL (by protocol)
In all, about 52,000 compounds went through this assay and about 4,300 (8.3%) were called active. The sample holds actives, similar compounds and a random draw of the others, so the mix is not that of the screen.
Quick reference: survival of the listed items.
Give a bare numeral; the unit % is implied.

Molecule | Tested Target | survival / %
O=C(CSc1nnnn1C1CCCC1)NCc1cccs1 | DeltatarO mutant | 103
O=C1CCCC/C1=N\Nc1ccc(N2CCCCC2)cc1 | DeltatarO mutant | 90
COc1ccc(N2C(=O)CSC23C(=O)N(CC(=O)NCCc2ccccc2)c2ccccc23)cc1 (centres undefined) | DeltatarO mutant | 94

Now look at this entry.
Entry `CCOc1cccc2sc(N3CCN(C(=O)C(C)(C)C)CC3)nc12` : reported survival = ?
77

----------
test system: DeltatarO mutant; test: S. aureus survival, RN4220 and DeltatarO strains – OD600, teichoic acid synthesis inhibitors, primary screen (AID 463173); conditions: S. aureus RN4220 wild type/DeltatarO growth, OD600, 18 h, hits give low values, screened at 18.75 µg/mL (by protocol)
The whole screen tested about 52,000 compounds, of which about 4,300 (8.3%) were called active. For the sample, actives were picked, then their nearest neighbours and some compounds at random.
Assay Endpoint: survival (%)
State the answer as a number, implicitly in %.

Reference set (3 entries):
Compound | Data Value
CCC(=O)N1CCc2cc(Br)cc(S(=O)(=O)NCCc3ccccc3Cl)c21 | 39
CCC(=O)N1CCc2cc(Br)cc(S(=O)(=O)NCCc3cccc(C)c3)c21 | 102
O=C(CSc1oc(-c2ccccc2)nc1S(=O)(=O)c1ccc(Cl)cc1)c1ccccc1 | 44

Entry `CCOc1ccc(CCNC(=O)CN2C(=O)COc3ccc(S(=O)(=O)N4CCCC4)cc32)cc1` has what survival?
69

Item under review: `O=C(CSc1oc(-c2ccccc2)nc1S(=O)(=O)c1ccccc1)c1ccccc1` . Reported survival?
148

Find the recorded survival belonging to `Cc1ccc(-c2nc(S(=O)(=O)c3ccccc3)c(SCC(=O)NC3CCCCC3)o2)cc1` and report it.
43

I have this compound here, `Cc1ccc(S(=O)(=O)c2nc(-c3ccccc3)oc2SCC(=O)NC2CCCCC2)cc1` , and I need its recorded survival.
166

Name the reported survival value associated with the compound `Cc1c(CCC(=O)NCCc2ccccc2F)c(=O)oc2cc(O)ccc12`
61

What survival value was documented for this compound, `CN(C)c1ccc(/C=C(/NC(=O)c2ccccc2)C(N)=O)cc1` ?
86

Look up survival for this compound: CC(=O)N1C(=O)/C(=C2\SC(=S)N(C(C)C(=O)O)C2=O)c2ccccc21 (stereo not given)
112

Form field: reported survival of Cc1cc(F)ccc1NC(=O)CCS(=O)(=O)c1ccc2c(c1)CC(C)N2C(=O)C1CC1 (stereo not given)
81

----------
Listing of entries alongside the reported survival.
test system: DeltatarO mutant; assay: S. aureus survival, RN4220 and DeltatarO strains – OD600, teichoic acid synthesis inhibitors, primary screen (AID 463173); settings: S. aureus RN4220 wild type/DeltatarO growth, OD600, 18 h, hits give low values, screened at 18.75 µg/mL (by protocol)
In all, about 52,000 compounds went through this assay and about 4,300 (8.3%) were called active. The sample as a whole holds a higher share of actives than the screen did.
State just the number; it will be interpreted in %.

Solved entries:
Compound | Tested Target | Unit Of Measurement | Data Value
COc1ccc(CCn2c(=O)c3cccnc3n(CC(=O)Nc3c(C)cccc3C)c2=O)cc1OC | DeltatarO mutant | % | 90
COc1cccc(CSc2nc3n(n2)C(c2cccnc2)C(C(=O)Nc2ccccc2C)=C(C)N3)c1 (centres undefined) | DeltatarO mutant | % | 74
Cc1ccc(-n2ncc(C(=O)NCCN3CCc4ccccc4C3)c2C2CCNCC2)cc1C | DeltatarO mutant | % | 95
Cc1ccc(OCc2ccc(-c3nc(C#N)c(N4CCC(C)CC4)o3)o2)cc1 | DeltatarO mutant | % | 58
CCN1CCN(c2oc(-c3ccc(COc4ccccc4C)o3)nc2C#N)CC1 | DeltatarO mutant | % | 82

Fill blank: measured survival of the compound `COc1ccc(OCc2ccc(-c3nc(C#N)c(N4CCC(C)CC4)o3)o2)cc1` is ____.
54

Any idea what survival was measured for COC(=O)c1ccc(NC(=O)C(C)N2Cc3ccccc3C2=O)cc1 (centres undefined) ?
66

Fill in: survival of `Cc1ccc(NC(=O)[C@H](Cc2ccccc2)N2Cc3ccccc3C2=O)cc1F` is ___
84

Form field: reported survival of `COc1ccc(OCc2ccc(-c3nc(C#N)c(N4CCC(C(N)=O)CC4)o3)o2)cc1`
72

Record request: survival value, item `COc1ccccc1Nc1nn2c(=O)c3ccc(C(=O)N4CCCCC4)cc3nc2s1`
71

Consider the compound shown here: `Cc1cccc(OCc2ccc(-c3nc(C#N)c(N4CCC(C(N)=O)CC4)o3)o2)c1` What is its recorded survival?
80

Give its survival value. Item: `COc1ccc(NC(=O)CSc2nc(C)cc(C)c2C(=O)Nc2ccccc2OC)cc1`
51

Fill blank: measured survival of the compound `CC(C)(C)C(=O)CSc1nc2ccsc2c(=O)n1Cc1ccccc1Cl` is ____.
77

Value lookup for survival; key = `CCc1ccc(NC(=O)Cn2c(=O)n(-c3cc(OC)c(OC)c(OC)c3)c(=O)c3ccccc32)cc1`
72

----------
tested on: DeltatarO mutant; experiment: S. aureus survival, RN4220 and DeltatarO strains – OD600, teichoic acid synthesis inhibitors, primary screen (AID 463173); settings: S. aureus RN4220 wild type/DeltatarO growth, OD600, 18 h, hits give low values, screened at 18.75 µg/mL (by protocol)
The whole screen tested about 52,000 compounds, of which about 4,300 (8.3%) were called active. The sample as a whole holds a higher share of actives than the screen did.
Returns: string. Value is 1 if measured survival is below 80%, and -1 if it is greater than or equal to it.

Compound | Group Label
Cn1c(NCc2ccccc2F)nc2ccccc21 | -1

Criterion: survival strictly below 80%. Is it met by `CCCn1c(NCc2ccccc2F)nc2ccccc21` ?
-1

Hi there! Is survival for `Cc1nn(-c2ccc(Cl)cc2)c2nc(-c3cccnc3)cc(C(F)(F)F)c12` below 80%, do you know?
1

# check: survival < 80% for `N#Cc1ccc(NC(=O)c2ccc3c(c2)nnn3C2CCCC2)cc1`
-1

A record lists CC(Oc1ccccc1F)C(=O)N1CCC(c2nc3ccccc3o2)CC1 (stereo unspecified) . Is its survival below 80%?
1

I'd appreciate it if you could check whether `Cc1ccccc1Cn1c(=O)n(CCCCC(=O)NCCc2ccccc2)c(=O)c2ccccc21` has survival smaller than 80%.
-1

Is survival of `CCCCn1c(NCc2ccc(N(C)C)cc2)nc2ccccc21` strictly below 80%?
1

Does this compound meet the criterion survival < 80%? `CCCn1c(NCc2ccccc2C)nc2ccccc21`
-1

Is it true that survival reported for `Cc1cc(-c2ccc(C)c(S(=O)(=O)N(Cc3cccs3)C(C)C)c2)on1` is less than 80%?
1

Answer whether the compound `CCn1c(NCc2ccccc2)nc2ccccc21` has survival strictly less than 80%
-1

Dear colleague, could you confirm whether survival of `Cc1cccc(C)c1NC(=O)Cn1nc(C)c2sc3ccccc3c2c1=O` falls below 80%? Thanks.
-1

Is the reported survival for CCc1cc2c(cc3c(=O)n(CC(=O)NC4CCC(C)CC4)ncn32)s1 (stereo unspecified) strictly below 80%?
-1

Hello, is survival of the following compound strictly smaller than 80%? `COc1ccc(C2(C(=O)N3CCCC3)CCCC2)cc1OC`
-1

Item `COc1ccc(S(=O)(=O)N2CCC(Oc3ccc(-n4cnnn4)cc3)CC2)cc1` : survival beneath 80%, strictly?
-1

Ref: PubChem BioAssay AID463173
